# Tested on: Rattus norvegicus
# protocol.description: Hypotensive activity in Wistar rat assessed as decrease in mean arterial blood pressure at 0.1 mg/kg, iv after 30 mins
# Assay type: functional
reported.endpoint: Activity (mmHg)
Dear colleague, please return just the value in mmHg, with no unit written.

Value of measured Activity for the entry `COc1cccc2c1cnn2N=C1NCCN1.Cl` : -7.6

Value of measured Activity for the entry `Cl.c1ccc(-c2nn(N=C3NCCN3)c3ccccc23)cc1` : -7.6

Value of measured Activity for the entry `Cl.Clc1ccc2c(cnn2N=C2NCCN2)c1` : -1.4

Value of measured Activity for the entry `COc1ccc2cnn(N=C3NCCN3)c2c1.Cl` : -17.1

Value of measured Activity for the entry `Cc1cccc2cnn(N=C3NCCN3)c12.Cl` : -40.6

Value of measured Activity for the entry `Cc1ccc2cnn(N=C3NCCN3)c2c1.Cl` : -23.4

Value of measured Activity for the entry `Cc1cccc2c1cnn2N=C1NCCN1.Cl` : -29

Value of measured Activity for the entry Cl.c1ccc2c(c1)cnn2N=C1NCCN1 [MARSANIDINE HYDROCHLORIDE] : -30.9

Value of measured Activity for the entry `Cc1ccc2c(cnn2N=C2NCCN2)c1.Cl` : -3.6

Value of measured Activity for the entry `Cl.Clc1cccc2c1cnn2N=C1NCCN1` : -14

====

# Test system: Rattus norvegicus
# protocol.description: Hypotensive activity in Wistar rat assessed as decrease in heart rate at 0.1 mg/kg, iv after 60 mins
# Type: functional
Can you tell me Activity for the items I'm about to list?
Units required after the number.

Value of measured Activity for the entry `Cl.Clc1cccc2c1cnn2N=C1NCCN1` : -24.3 bpm

Value of measured Activity for the entry `Cc1cccc2cnn(N=C3NCCN3)c12.Cl` : -122.9 bpm

Value of measured Activity for the entry `Cl.Clc1ccc2c(cnn2N=C2NCCN2)c1` : 12.8 bpm

Value of measured Activity for the entry `Cc1ccc2c(cnn2N=C2NCCN2)c1.Cl` : -1 bpm

Value of measured Activity for the entry `Cc1cccc2c1cnn2N=C1NCCN1.Cl` : -22.7 bpm

Value of measured Activity for the entry `Cc1ccc2cnn(N=C3NCCN3)c2c1.Cl` : -26.4 bpm

Value of measured Activity for the entry Cl.c1ccc2c(c1)cnn2N=C1NCCN1 [MARSANIDINE HYDROCHLORIDE] : -31.4 bpm

====

# experimental.target: Nischarin (Rattus norvegicus)
# Sequence (Q4G017 whole entry): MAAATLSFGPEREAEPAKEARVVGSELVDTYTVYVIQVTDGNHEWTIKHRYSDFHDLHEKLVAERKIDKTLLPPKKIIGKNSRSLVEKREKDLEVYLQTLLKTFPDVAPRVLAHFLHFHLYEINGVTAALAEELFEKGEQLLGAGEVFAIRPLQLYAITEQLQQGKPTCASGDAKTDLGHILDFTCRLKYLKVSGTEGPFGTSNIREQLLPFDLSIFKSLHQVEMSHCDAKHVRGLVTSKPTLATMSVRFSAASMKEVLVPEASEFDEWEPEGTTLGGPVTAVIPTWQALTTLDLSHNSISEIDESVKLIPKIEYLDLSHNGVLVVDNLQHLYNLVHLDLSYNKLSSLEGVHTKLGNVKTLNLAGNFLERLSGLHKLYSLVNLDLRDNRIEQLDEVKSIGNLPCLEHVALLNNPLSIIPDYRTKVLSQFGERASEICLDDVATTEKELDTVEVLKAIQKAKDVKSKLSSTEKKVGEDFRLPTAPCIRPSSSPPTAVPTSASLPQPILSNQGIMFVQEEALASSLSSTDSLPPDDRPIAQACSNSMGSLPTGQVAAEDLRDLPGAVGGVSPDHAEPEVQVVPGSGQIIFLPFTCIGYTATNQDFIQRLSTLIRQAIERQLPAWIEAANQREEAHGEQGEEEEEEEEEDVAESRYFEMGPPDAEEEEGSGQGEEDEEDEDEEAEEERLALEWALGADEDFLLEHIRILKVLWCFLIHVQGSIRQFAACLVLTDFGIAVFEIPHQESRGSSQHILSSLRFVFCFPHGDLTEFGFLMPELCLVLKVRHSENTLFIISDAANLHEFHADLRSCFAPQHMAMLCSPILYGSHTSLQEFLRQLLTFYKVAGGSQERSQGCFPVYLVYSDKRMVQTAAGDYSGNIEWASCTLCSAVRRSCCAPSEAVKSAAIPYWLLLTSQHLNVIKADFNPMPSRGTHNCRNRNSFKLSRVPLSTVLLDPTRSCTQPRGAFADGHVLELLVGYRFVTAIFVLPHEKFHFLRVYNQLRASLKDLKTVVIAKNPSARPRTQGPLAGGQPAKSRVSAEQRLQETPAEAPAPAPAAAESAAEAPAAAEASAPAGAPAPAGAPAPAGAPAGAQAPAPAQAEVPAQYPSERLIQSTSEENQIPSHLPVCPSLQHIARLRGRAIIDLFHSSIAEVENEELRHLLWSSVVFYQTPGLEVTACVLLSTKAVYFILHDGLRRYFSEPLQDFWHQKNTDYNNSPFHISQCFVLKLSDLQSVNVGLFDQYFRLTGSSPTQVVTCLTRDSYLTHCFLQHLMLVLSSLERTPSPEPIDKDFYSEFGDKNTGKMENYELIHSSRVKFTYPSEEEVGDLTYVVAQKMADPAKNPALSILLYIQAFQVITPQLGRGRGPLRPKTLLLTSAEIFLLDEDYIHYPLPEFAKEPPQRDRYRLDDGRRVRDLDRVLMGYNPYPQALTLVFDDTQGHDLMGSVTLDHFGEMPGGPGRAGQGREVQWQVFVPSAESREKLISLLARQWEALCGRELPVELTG
Can you tell me pIC50 for the items I'm about to list?
On this scale, pIC50 is minus log10 of a concentration expressed in M (mol/L).

Value of measured pIC50 for the entry `Clc1cccc2nn(N=C3NCCN3)cc12` : 4.32

Value of measured pIC50 for the entry `COc1cccc2c1cnn2N=C1NCCN1.Cl` : 4.87

Value of measured pIC50 for the entry `Cc1ccc2c(cnn2N=C2NCCN2)c1.Cl` : 4.69

Value of measured pIC50 for the entry `Cl.Clc1cccc2c1cnn2N=C1NCCN1` : 4.50

Value of measured pIC50 for the entry `c1ccc2c(c1)nnn2N=C1NCCN1` : 4.07

Value of measured pIC50 for the entry `Clc1ccc2nn(N=C3NCCN3)cc2c1` : 4.61

Value of measured pIC50 for the entry `Cc1ccc2cn(N=C3NCCN3)nc2c1` : 4.70

Value of measured pIC50 for the entry Cl.c1ccc2c(c1)cnn2N=C1NCCN1 [MARSANIDINE HYDROCHLORIDE] : 4.26

Value of measured pIC50 for the entry `Cc1cccc2c1cnn2N=C1NCCN1.Cl` : 4.41

Value of measured pIC50 for the entry `Cc1ccc2nn(N=C3NCCN3)cc2c1` : 4.87

Value of measured pIC50 for the entry `Cl.Clc1ccc2c(cnn2N=C2NCCN2)c1` : 4.77

Value of measured pIC50 for the entry `Cc1cccc2cnn(N=C3NCCN3)c12.Cl` : 6.41
